target-of-assay: Opioid receptors; mu & kappa (Homo sapiens) (UniProt P41145+P35372)
Sequence (P35372 whole entry, looked up): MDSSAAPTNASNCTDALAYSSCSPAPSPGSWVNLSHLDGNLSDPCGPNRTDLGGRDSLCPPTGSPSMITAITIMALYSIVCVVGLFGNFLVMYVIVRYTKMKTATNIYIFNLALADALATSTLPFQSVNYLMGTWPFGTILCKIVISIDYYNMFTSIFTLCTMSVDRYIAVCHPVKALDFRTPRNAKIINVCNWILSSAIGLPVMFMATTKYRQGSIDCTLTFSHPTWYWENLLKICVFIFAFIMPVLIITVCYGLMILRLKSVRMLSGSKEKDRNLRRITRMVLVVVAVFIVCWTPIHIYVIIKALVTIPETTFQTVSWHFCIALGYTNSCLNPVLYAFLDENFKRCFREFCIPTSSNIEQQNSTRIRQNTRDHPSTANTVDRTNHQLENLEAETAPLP
Sequence (P41145 whole entry, looked up): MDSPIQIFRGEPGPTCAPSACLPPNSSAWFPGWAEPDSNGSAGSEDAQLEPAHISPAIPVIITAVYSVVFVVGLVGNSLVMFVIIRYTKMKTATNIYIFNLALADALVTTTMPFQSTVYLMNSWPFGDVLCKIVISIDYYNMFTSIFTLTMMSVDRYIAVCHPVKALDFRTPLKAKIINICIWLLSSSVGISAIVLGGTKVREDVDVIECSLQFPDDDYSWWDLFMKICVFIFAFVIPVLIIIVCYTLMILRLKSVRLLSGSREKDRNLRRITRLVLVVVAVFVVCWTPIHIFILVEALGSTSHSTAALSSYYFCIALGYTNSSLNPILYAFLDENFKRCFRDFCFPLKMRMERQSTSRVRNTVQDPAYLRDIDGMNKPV
test-summary: Selectivity for cloned human mu opioid receptor over kappa opioid receptor
Type: protein assay
measured-parameter: Ratio Ke

stdin: Quick one: give measured Ratio Ke for CN1CC[C@]2(c3cccc(O)c3)CCCC[C@]2(C)C1
stdout: 29

stdin: Quick one: give measured Ratio Ke for C[C@]12CC[C@@H](NC(=O)C3(c4ccccc4)CCCC3)C[C@@]1(c1cccc(O)c1)CCN(CCCc1ccccc1)C2
stdout: 0.8

stdin: Quick one: give measured Ratio Ke for C[C@]12CC[C@@H](NC(=O)CCN3CCCCC3)C[C@@]1(c1cccc(O)c1)CCN(CCCc1ccccc1)C2 (relative stereo)
stdout: 154

stdin: Quick one: give measured Ratio Ke for C[C@]12CCCC[C@@]1(c1cccc(O)c1)CCN(CCCc1ccccc1)C2 (relative stereo)
stdout: 0.8

----------
Each entry below carries its measured Ke, system: UniProt:P41145.
Quick reminder: number only, in nM, skip the unit.

stdin: Quick one: give measured Ke for C[C@]12CC[C@@H](NC(=O)C3(c4ccccc4)CCCC3)C[C@@]1(c1cccc(O)c1)CCN(CCCc1ccccc1)C2
stdout: 1.93

stdin: Quick one: give measured Ke for CN1CC[C@]2(c3cccc(O)c3)CCCC[C@]2(C)C1
stdout: 3.37

stdin: Quick one: give measured Ke for C[C@]12CC[C@@H](NC(=O)c3cc4ccccc4s3)C[C@@]1(c1cccc(O)c1)CCN(CCCc1ccccc1)C2 (relative stereo)
stdout: 0.46

stdin: Quick one: give measured Ke for C[C@]12CCCC[C@@]1(c1cccc(O)c1)CCN(CCCc1ccccc1)C2 (relative stereo)
stdout: 1.03

stdin: Quick one: give measured Ke for C[C@]12CC[C@@H](NC(=O)CCN3CCCCC3)C[C@@]1(c1cccc(O)c1)CCN(CCCc1ccccc1)C2 (relative stereo)
stdout: 0.27

stdin: Quick one: give measured Ke for C[C@]12CC[C@@H](NC(=O)CCN3CCc4ccccc4C3)C[C@@]1(c1cccc(O)c1)CCN(CCCc1ccccc1)C2 (relative stereo)
stdout: 0.22

stdin: Quick one: give measured Ke for C[C@]12CCCC[C@@]1(c1cccc(O)c1)CCN(CCc1ccccc1)C2 (relative stereo)
stdout: 2.84

----------
target-of-assay: Opioid receptors; delta & kappa (Homo sapiens) (UniProt P41145+P41143)
Sequence (P41143 whole entry, looked up, one chain of several): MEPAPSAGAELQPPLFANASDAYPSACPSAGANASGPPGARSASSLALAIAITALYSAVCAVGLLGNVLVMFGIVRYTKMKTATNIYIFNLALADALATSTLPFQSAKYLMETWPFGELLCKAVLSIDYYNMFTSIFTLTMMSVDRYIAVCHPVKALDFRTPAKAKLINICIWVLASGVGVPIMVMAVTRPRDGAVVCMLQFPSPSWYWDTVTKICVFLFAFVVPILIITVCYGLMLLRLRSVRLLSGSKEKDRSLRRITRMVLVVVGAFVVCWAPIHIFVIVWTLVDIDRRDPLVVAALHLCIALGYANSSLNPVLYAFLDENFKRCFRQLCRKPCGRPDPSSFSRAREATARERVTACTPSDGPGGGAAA
test-summary: Selectivity for cloned human delta opioid receptor over kappa opioid receptor
Format: protein assay
// label = True if Ratio Ke is not less than 50, otherwise False

stdin: Given the entry C[C@]12CC[C@@H](NC(=O)CCN3CCCCC3)C[C@@]1(c1cccc(O)c1)CCN(CCCc1ccccc1)C2 (relative stereo) , answer whether its Ratio Ke meets or surpasses 50.
stdout: False

stdin: Given the entry C[C@]12CCCC[C@@]1(c1cccc(O)c1)CCN(CCCc1ccccc1)C2 (relative stereo) , answer whether its Ratio Ke meets or surpasses 50.
stdout: False

stdin: Given the entry Oc1ccc2c3c1O[C@H]1c4[nH]c5c(c4C[C@@]4(O)[C@@H](C2)N(CC2CC2)CC[C@]314)C[C@@]1(O)[C@H]2Cc3ccc(O)c4c3[C@@]1(CCN2CC1CC1)[C@H]5O4 , answer whether its Ratio Ke meets or surpasses 50.
stdout: True

stdin: Given the entry C[C@]12CC[C@@H](NC(=O)CCN3CCc4ccccc4C3)C[C@@]1(c1cccc(O)c1)CCN(CCCc1ccccc1)C2 (relative stereo) , answer whether its Ratio Ke meets or surpasses 50.
stdout: False

stdin: Given the entry C[C@]12CCCC[C@@]1(c1cccc(O)c1)CCN(CCc1ccccc1)C2 (relative stereo) , answer whether its Ratio Ke meets or surpasses 50.
stdout: False

stdin: Given the entry CN1CC[C@]2(c3cccc(O)c3)CCCC[C@]2(C)C1 , answer whether its Ratio Ke meets or surpasses 50.
stdout: True

stdin: Given the entry C[C@]12CC[C@@H](NC(=O)C3(c4ccccc4)CCCC3)C[C@@]1(c1cccc(O)c1)CCN(CCCc1ccccc1)C2 , answer whether its Ratio Ke meets or surpasses 50.
stdout: False

stdin: Given the entry C[C@]12CC[C@@H](NC(=O)c3cc4ccccc4s3)C[C@@]1(c1cccc(O)c1)CCN(CCCc1ccccc1)C2 (relative stereo) , answer whether its Ratio Ke meets or surpasses 50.
stdout: False

The reported numbers originate from ChEMBL document CHEMBL1140437.
